Target: T1, CD134 expressed on the cell surface of HT1080_OX40 cells (human, UniProt P43489 29-277); also: test concentration or dose not given here
T1 sequence (looked up): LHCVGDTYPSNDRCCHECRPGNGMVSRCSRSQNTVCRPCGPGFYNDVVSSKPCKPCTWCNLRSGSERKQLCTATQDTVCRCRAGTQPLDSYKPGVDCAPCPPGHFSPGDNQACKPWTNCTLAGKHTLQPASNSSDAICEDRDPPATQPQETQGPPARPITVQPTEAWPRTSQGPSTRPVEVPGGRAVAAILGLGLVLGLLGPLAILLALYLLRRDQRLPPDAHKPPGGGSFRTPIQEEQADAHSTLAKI
Assay: cell-based or functional assay
assay.endpoint: Functional assay Cross-linked by F(ab′)2 fragment IL-8 (abs. corr.)
Your answer should be a plain number; it is taken to be in abs. corr..

These recorded examples may help you get a feel for the data.
binder	unit.string	readout.number
P018.S.02.A.F03 (antibody, V domains shown, V regions on human Ig constant parts; also called AB134_2) VH: QSVEESGGRLVTPGTPLTLTCTASGFSLSRYYMSWVRQAPGKGLEWIGFINTAGSAYYASWAKGRFTISRTSTTVDLKMTSLTTEDTATYFCARDLSRFSLWGRGTLVIVSS VL: AAVLTQTPSPVSAAVGGTVTINCQASPSVYSDYLSWFQKKPGQPPKLLIYWASTLASGVPSRFSGSGSGTQFTLTISDLESDDVATYYCAGGYSGNSDNWAFGGGTDVVVK	abs. corr.	1.73
P018.S.12.A.F03 (antibody, V domains shown, V regions on human Ig constant parts; also called AB134_79) VH: QSLEESGGRLVAPGTPLTLTCTVSGIDLSRYAMGWVRQAPGKGLEYIGIIDDNDITYFATWAKGRFTISKTSTTLGLKITSPTTEDTATYFCARTADYADYSFGLWGPGTLVTVSS VL: DVVMTQTPTSVSEPVGGTVTIKCQASENIGNYLAWYQQRPGQRPKLLIYAASNLASGVPSRFKGSGSGTEYALTISDLESDDAATYYCQCTYDDSEYFVFGGGTEVVVK	abs. corr.	2.15

Task: What value of Functional assay Cross-linked by F(ab′)2 fragment IL-8 has been reported for the following binder? P018.S.11.A.B05 (antibody, V domains shown, V regions on human Ig constant parts; also called AB134_26) VH: QSVEESGGRLVTPGTPLTLTCTVSGFSLSTYNVAWVRQAPGKGLQYIGIMAFDGNTYYASWATGRFTISRTSTTVNLKITSPTTEDTATYFCCKGDPSSDTGTTLWGQGTLVTVSS VL: AAVLTQTPSSASEPVGGTVTIKCQSSPSVYSNNWLAWFQQKPGQRPKLLIYAAAKLASGVPSRFRGSGSGTQFTLTISDVQSDDAATYYCAGGFNSDSDTTFGGGTEVVVK
Result: 1.83

// provenance: patent US20210253725A1
